The origin of these recorded values is PubChem BioAssay (NCI).

System: SK-MEL-5 melanoma
Assay: NCI-60 one-dose screen, 48 h
Conditions: 10 µM unless noted
Compounds without any hit were thinned out: in the full panel of roughly 83,000, 20% have a hit. Calls of active or inactive are those of the source. The calls were made as follows: active = growth percent below 10; inactive = the rest.
Outcome codes: label 1 = active, label 0 = inactive

molecule	className
COc1ccc(-n2nc(C)c3c(Nc4ccc(NC(=O)Nc5c(Cl)cccc5Cl)cc4)ncnc32)cc1	label 1
Cc1cc(Nc2ccc(C)c(Cl)c2)n2nc(C(F)(F)F)nc2n1	label 0
CC(=O)Nc1ccc(-n2c(O)c(/C=N/NC(=O)Cc3ccccc3Nc3c(Cl)cccc3Cl)sc2=S)cc1	label 0
COc1ccc(-c2nc3ccc(-c4nc5ccc(N6CCN(c7ccc(F)cc7)CC6)cc5[nH]4)cc3[nH]2)cc1OC	label 0
O=[N+]([O-])c1ccc2c(c1)Cc1cc(F)ccc1-2	label 0
Cc1cn2c(/C=C3/C(=O)Nc4c3ccc3ccccc43)c(C(F)(F)F)nc2s1	label 0
COc1ccc2c(c1)c(-c1nonc1-c1cn(C)c3ccccc13)cn2C	label 0
CC(O)CN1CC(O)=C(c2nc3ccccc3s2)C1=N (stereo not given)	label 0
CSc1nc(NCCO)c(C#N)c(-c2cccc([N+](=O)[O-])c2)n1	label 0
COCCNc1ccc2c3c(cccc13)C(=O)N(CCN(C)C)C2=O	label 1
N#C/C(=C\c1ccc(-c2cc(C(F)(F)F)ccc2Cl)o1)c1nc(-c2ccco2)cs1	label 0
CN(CCCCCl)P(=O)(OCc1ccc([N+](=O)[O-])o1)C(F)(F)c1ccc(CC(=O)NC[C@@H](O)/C=C\[C@@H](O)[C@H](CO)Cc2ccccc2)cc1 (stereo not given in full)	label 0
COc1ccc(-n2nc(C)c3c(Nc4ccc(NC(=O)Nc5ccc(Cl)c(C(F)(F)F)c5)cc4)ncnc32)cc1	label 1
O=C(NCCN1CCOCC1)Nc1ccc(-c2cc3c(Nc4ccc(Oc5cccc(C(F)(F)F)c5)c(Cl)c4)ncnc3s2)cc1	label 1
CCNc1ncnc2c1cnn2C1CCCO1 (stereo not given)	label 0
COc1ccc(NC2=C(Sc3nc(C)cc(C)n3)C(=O)N(Cc3ccccc3)C2=O)cc1Cl	label 0
O=C1CSC(=S)N1CCc1ccc(O)cc1	label 0
O=C1NC(=S)NC(=O)C1CC(=O)n1c(-c2ccccc2)nc2ccccc21	label 0
O=C1NC(=Nc2ccc(O)cc2)S/C1=C\c1cccc(Cl)c1	label 0
COc1cc(/C=C/C(=O)c2cccnc2Nc2ccc(F)cc2)cc(OC)c1OC	label 0
